Values from patent US20250027068

# Assay System: pooled human IgG (human IgG1,2,3 and 4)
Recorded Endpoint: Enzyme Activity Endpoint Assay: scIgG
Returns: string containing the numeric result and its unit.

Protein: PRT-185 (protein) MANQEIRYSEVTPYHVTSVWTKGVTPPANFRQGEDVFAAPYVANQGWYDITKTFNGKDDLLCGAATAGNMLHWWFDQNKDQIKRYLEEHPEKQKINFNGEQMFDVKELNTYESDHGYRDKSKLFEYFKEKAFPYLSTKHLGVFPDHVIDMFINGYRLSLTNHGPTPVKEGSKDPRGGIFDAVFTRGDQSKLLTSRHDFKEKNLKEISDLIKKELTEGKALGLSHTYANVRINHVINLWGADFDSNGNLKAIYVTDSDDKKLTIGDERIGMKKYFVGVNSAGKVAISAKEIKEDNIGAQVLGLFTLSTGQDSWNQTN
Recorded Result: 152 ng/µL

Please find the next protein below.
input: Find the recorded Enzyme Activity Endpoint Assay: scIgG belonging to PRT-299 (protein) MVTSVWTKGVTPPTDFIKGEDVFHAPYKAGQGWYDITKTFNGKDDLLCGAATAGNMLHWWFDQNKEYIEAYLKKHPEKQKIMFGDQELLDVRKAINTKGSQKNSELFNYFRDKAFPNLSARRLGVMPDLVLDMFINGYYLNVTKTQTTDVNRTYQEKDKRGGIFDAVFTRGDQSKLLTSRHDFKEKGLKEISDLIKQELTEGKALGLSHTYANVRIGHVINLWGADFDSDGNLKAIYVTDSDSNASIGMKKYFVGVNSSGKVAISAKEIKEDNIGAQVLGLFTLSTGQDIWNQTN and report it.
output: 0 ng/µL
